Some binders, each annotated with its measured 100 nM Ag Bound (RU).
TARGET_OR_TEST_SYSTEM: T1, hmm.hTfRC (REGN2431), human transferrin receptor extracellular domain with hexahistidine-myc-myc tag (human, UniProt P02786 89-760)
T1 construct: Monomeric recombinant protein, 79210 g/mol; also called hTFR-mmh; His-myc-myc-hTFRC ecto
T1 sequence (P02786 other isoform, or with tags, fused parts or gaps): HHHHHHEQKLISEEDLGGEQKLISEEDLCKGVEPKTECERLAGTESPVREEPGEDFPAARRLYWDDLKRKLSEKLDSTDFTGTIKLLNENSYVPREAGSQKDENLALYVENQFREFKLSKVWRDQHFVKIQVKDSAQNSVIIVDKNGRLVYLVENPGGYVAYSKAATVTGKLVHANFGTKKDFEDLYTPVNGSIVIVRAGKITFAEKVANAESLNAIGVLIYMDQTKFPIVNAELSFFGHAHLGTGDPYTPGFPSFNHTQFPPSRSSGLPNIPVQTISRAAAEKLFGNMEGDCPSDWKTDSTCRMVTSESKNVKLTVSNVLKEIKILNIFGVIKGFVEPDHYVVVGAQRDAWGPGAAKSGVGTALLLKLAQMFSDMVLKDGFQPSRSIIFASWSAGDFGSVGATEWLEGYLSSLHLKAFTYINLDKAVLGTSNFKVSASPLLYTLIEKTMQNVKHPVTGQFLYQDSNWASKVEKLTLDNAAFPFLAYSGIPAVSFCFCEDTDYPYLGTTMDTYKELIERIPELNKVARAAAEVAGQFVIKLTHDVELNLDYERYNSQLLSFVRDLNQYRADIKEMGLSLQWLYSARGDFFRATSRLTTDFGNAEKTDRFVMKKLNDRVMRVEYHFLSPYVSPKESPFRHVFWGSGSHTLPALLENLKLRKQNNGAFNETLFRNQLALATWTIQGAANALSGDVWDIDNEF
TEST: SPR (Biacore), mAb captured on anti-human Fc, 100 nM hTFR-mmh, 25 C

BINDER: 12802B (antibody, human IgG1, kappa, V domains shown, Tested as bivalent human IgG1 from CHO primary supernatant) VH: QVQLVESGGGLVKPGGSLRLSCAASGFTFSDYFMSWIRQAPGKGLEWVSYISSTGSTINYADSVKGRFTISRDNVKNSLYLQMTSLRVEDTAVYYCTRDNWNYEYWGQGTLVTVSS VL: EIVMTQSPATLSVSPGERATLSCRASQSVSINLAWYQQKPGQAPRLLIFVASTRATGIPARFSGSGSGTEFTLTISSLQSEDFATYYCQQYDIWPYTFGQGTKLEIKR
100 nM Ag Bound (RU): 903
//
BINDER: 69331 (antibody, human IgG1, kappa, V domains shown, Tested as bivalent human IgG1 from CHO primary supernatant) VH: QVQLVESGGGVVQPGRSLRLSCIASGFTFSVYGIHWVRQAPGKGLEWMAVISHDGNIKHYADSVKGRFTISRDNSKNTLYLQINSLRTEDTAVYYCAKDTWNSLDTFDIWGQGTMVTVSS VL: DIQLTQSPSSLSASVGDRVTITCWASQGISSYLAWYQQKPGKAPKLLIYAASTLQSGVPSRFSGSGSGTEFTLTISSLQPEDFATYYCQQLNSYPLTFGGGTKVEIKR
100 nM Ag Bound (RU): 87
//
BINDER: 69329 (antibody, human IgG1, kappa, V domains shown, Tested as bivalent human IgG1 from CHO primary supernatant) VH: EVQLVESGGGLVQPGGSLRLSCAASGFTFSNYWMTWVRQAPGKGLEWVANIKEDGSEKDYVDSVKGRFTISRDNAKNSLYLQMNSLRGEDTAVYYCARDGEQLVDYYYYYVMDVWGQGTTVTVSS VL: DIQMTQSPSSVSASVGDRVTITCRASQGISSWLAWYQQKPGKAPKLLIYAASSLQSGVPSRFSGSGSGTDFTLTISSLQPEDFATYYCQKANSFPYTFGQGTKLEIKR
100 nM Ag Bound (RU): 1100
